Test system: Rattus norvegicus
Test Summary: Compound was evaluated for Appetite suppression, based on intake of liquid diet by food-deprived rats for 1 h following intraperitoneal injection
Type: functional
Experimental Setup: ip
Square brackets hold non-standard residues; d marks the D form. Peptide text beside a SMILES is read from it. * marks the point of attachment. Acryloyl(3-(3-pyridyl),E) = O=C(/C=C/c1cccnc1)*; NMeF = CN[C@@H](Cc1ccccc1)C(=O)O; NMeD = CN[C@@H](CC(=O)O)C(=O)O; X1 = O=C(/C=C/c1ccc(O)cc1)*; X2 = O=C(/C=C/c1cccs1)*; Boc = CC(C)(C)OC(=O)*
Metric: log10 ED50 (log10 of the value in µmol/kg)
Kindly note that the scale is log10 and the underlying ED50 is in µmol/kg.

Task item: Give recorded log10 ED50. CN(C(=O)[C@H](CC(=O)O)NC(=O)[C@H](CCCCNC(=O)/C=C/c1cccnc1)NC(=O)[C@H](Cc1c[nH]c2ccccc12)NC(=O)OC(C)(C)C)[C@@H](Cc1ccccc1)C(N)=O (Boc-WK(Acryloyl(3-(3-pyridyl),E))D[NMeF]-NH2)
Reply: 0.40

Task item: Write down log10 ED50 measured for item CN(C(=O)[C@H](CC(=O)O)NC(=O)[C@H](CCCCNC(=O)/C=C/c1cccs1)NC(=O)[C@H](Cc1c[nH]c2ccccc12)NC(=O)OC(C)(C)C)[C@@H](Cc1ccccc1)C(N)=O (Boc-WK(X2)D[NMeF]-NH2)
Reply: 0.15

Task item: Give the reported log10 ED50 for this molecule. CN(C(=O)[C@H](CCCCNC(=O)/C=C/c1ccc(O)cc1)NC(=O)[C@H](Cc1c[nH]c2ccccc12)NC(=O)OC(C)(C)C)[C@@H](CC(=O)O)C(=O)N[C@@H](Cc1ccccc1)C(N)=O (Boc-WK(X1)[NMeD]F-NH2)
Reply: -1.74

Task item: Could you please provide reported log10 ED50 for CN(C(=O)[C@H](CCCCNC(=O)/C=C/c1cccnc1)NC(=O)[C@H](Cc1c[nH]c2ccccc12)NC(=O)OC(C)(C)C)[C@@H](CC(=O)O)C(=O)N[C@@H](Cc1ccccc1)C(N)=O (Boc-WK(Acryloyl(3-(3-pyridyl),E))[NMeD]F-NH2) ? Thanks!
Reply: -1.44

Task item: Dear colleague, please send me the reported log10 ED50 for CN(C(=O)[C@H](CCCCNC(=O)/C=C/c1cccs1)NC(=O)[C@H](Cc1c[nH]c2ccccc12)NC(=O)OC(C)(C)C)[C@@H](CC(=O)O)C(=O)N(C)[C@@H](Cc1ccccc1)C(N)=O (Boc-WK(X2)[NMeD][NMeF]-NH2) when you can.
Reply: -1.66

Task item: Return log10 ED50 (reported value) for this molecule: CN(C(=O)[C@H](CCCCNC(=O)/C=C/c1ccc(O)cc1)NC(=O)[C@H](Cc1c[nH]c2ccccc12)NC(=O)OC(C)(C)C)[C@@H](CC(=O)O)C(=O)N(C)[C@@H](Cc1ccccc1)C(N)=O (Boc-WK(X1)[NMeD][NMeF]-NH2)
Reply: -1.21

Task item: Supply recorded log10 ED50 for CN(C(=O)[C@H](CCCCNC(=O)/C=C/c1cccnc1)NC(=O)[C@H](Cc1c[nH]c2ccccc12)NC(=O)OC(C)(C)C)[C@@H](CC(=O)O)C(=O)N(C)[C@@H](Cc1ccccc1)C(N)=O (Boc-WK(Acryloyl(3-(3-pyridyl),E))[NMeD][NMeF]-NH2) here.
Reply: -1.80

Task item: Supply log10 ED50 value. Item: CN(C(=O)[C@H](CC(=O)O)NC(=O)[C@H](CCCCNC(=O)/C=C/c1ccc(O)cc1)NC(=O)[C@H](Cc1c[nH]c2ccccc12)NC(=O)OC(C)(C)C)[C@@H](Cc1ccccc1)C(N)=O (Boc-WK(X1)D[NMeF]-NH2)
Reply: -0.38

Task item: Give log10 ED50 for the following molecule: CN(C(=O)[C@H](CCCCNC(=O)/C=C/c1cccs1)NC(=O)[C@H](Cc1c[nH]c2ccccc12)NC(=O)OC(C)(C)C)[C@@H](CC(=O)O)C(=O)N[C@@H](Cc1ccccc1)C(N)=O (Boc-WK(X2)[NMeD]F-NH2)
Reply: -1.92

Origin of measurements: ChEMBL document CHEMBL1127521
